Tested on: rodent lifetime carcinogenesis bioassay, tumor incidence TD50
measurement-notes: carcinogenic potency in animals, long-term in vivo studies, CPDB compilation (AID 1745844)
test-context: monkey; strain Cynomolgus [Macaca fascicularis]; both sexes; in feed; site: lung; lesion: bronchogenic carcinoma; dosed 258 weeks; study length 1208 weeks
property: TD50

Prompt: Dear colleague, I am looking for the recorded TD50 of the following compound: `CCOC(N)=O`
Completion: 31.7 mg/kg/day

----------
Tested on: rodent lifetime carcinogenesis bioassay, tumor incidence TD50
measurement-notes: carcinogenic potency in animals, long-term in vivo studies, CPDB compilation (AID 1745844)
test-context: rat; strain Fischer 344; females; in drinking water; site: nasal cavity; lesion: olfactory carcinoma; dosed 55 weeks; study length 105 weeks
property: TD50

Prompt: Look up TD50: `O=NN(CCO)CCO`
Completion: 128 mg/kg/day

----------
Test system: rodent lifetime carcinogenesis bioassay, tumor incidence TD50
measurement-notes: carcinogenic potency in animals, long-term in vivo studies, CPDB compilation (AID 1745844)
test-context: mouse; strain CBA/Cb/Se; males; by gavage; site: liver; lesion: hepatoma; dosed 36 weeks; study length 84 weeks
property: TD50

Prompt: Please look up its TD50: `O=S(=O)(O)O`
Completion: 8.43 mg/kg/day

----------
Test system: rodent lifetime carcinogenesis bioassay, tumor incidence TD50
measurement-notes: carcinogenic potency in animals, long-term in vivo studies, CPDB compilation (AID 1745844)
test-context: mouse; strain B6C3F1; males; inhaled; site: all sites; lesion: malignant lymphoma, mixed type + malignant lymphoma, lymphocytic type + malignant lymphoma; dosed 26 weeks; study length 104 weeks
property: TD50

Prompt: Give TD50 (rodent lifetime carcinogenesis bioassay, tumor incidence TD50) of the following compound: `C=CC=C`
Completion: 31.3 mg/kg/day

----------
Test system: rodent lifetime carcinogenesis bioassay, tumor incidence TD50
measurement-notes: carcinogenic potency in animals, long-term in vivo studies, CPDB compilation (AID 1745844)
test-context: monkey; strain Cynomolgus [Macaca fascicularis]; both sexes; in feed; site: oral cavity; lesion: several types; types named in the paper; dosed 928 weeks; study length 1135 weeks
property: TD50 (mg/kg/day)
Give the value, in units of mg/kg/day, as a plain number.

Prompt: Requested read-out TD50, target or system rodent lifetime carcinogenesis bioassay, tumor incidence TD50, entry `CN(N=O)C(N)=O`
Completion: 2.65

----------
Tested on: rodent lifetime carcinogenesis bioassay, tumor incidence TD50
measurement-notes: carcinogenic potency in animals, long-term in vivo studies, CPDB compilation (AID 1745844)
test-context: mouse; strain B6C3F1; females; in feed; site: any site (literature study); lesion: several types; types named in the paper; dosed 101 weeks; study length 104 weeks
property: TD50 (mg/kg/day)
# number only, unit mg/kg/day dropped from output

Prompt: Which TD50 is reported for this compound? `CCC1(c2ccccc2)C(=O)NCNC1=O`
Completion: 163

----------
Tested on: rodent lifetime carcinogenesis bioassay, tumor incidence TD50
measurement-notes: carcinogenic potency in animals, long-term in vivo studies, CPDB compilation (AID 1745844)
test-context: mouse; strain Charles River CD1; females; inhaled; site: Harderian gland; lesion: adenoma; dosed 67 weeks; study length 74 weeks
property: TD50

Prompt: I am curious: what TD50 value has been reported for `C=CF` ?
Completion: 4010 mg/kg/day

----------
Test system: rodent lifetime carcinogenesis bioassay, tumor incidence TD50
measurement-notes: carcinogenic potency in animals, long-term in vivo studies, CPDB compilation (AID 1745844)
test-context: rat; strain Fischer 344; males; by gavage; site: kidney; lesion: mesenchymal neoplasm; dosed 30 weeks; study length 65 weeks
property: TD50

query-smiles	TD50
CN(C)N=O	0.189 mg/kg/day

Now take the following compound into account.
Prompt: Kindly state the measured TD50 obtained for `CN=[N+](C)[O-]` with rodent lifetime carcinogenesis bioassay, tumor incidence TD50.
Completion: 0.3 mg/kg/day
